# tested-system: human TLR7 (wild type sequence) (Homo sapiens, UniProt Q9NYK1)
# Construct: expressed in transfected cells; host or cells: HEK293
# Sequence (Q9NYK1 27-1049): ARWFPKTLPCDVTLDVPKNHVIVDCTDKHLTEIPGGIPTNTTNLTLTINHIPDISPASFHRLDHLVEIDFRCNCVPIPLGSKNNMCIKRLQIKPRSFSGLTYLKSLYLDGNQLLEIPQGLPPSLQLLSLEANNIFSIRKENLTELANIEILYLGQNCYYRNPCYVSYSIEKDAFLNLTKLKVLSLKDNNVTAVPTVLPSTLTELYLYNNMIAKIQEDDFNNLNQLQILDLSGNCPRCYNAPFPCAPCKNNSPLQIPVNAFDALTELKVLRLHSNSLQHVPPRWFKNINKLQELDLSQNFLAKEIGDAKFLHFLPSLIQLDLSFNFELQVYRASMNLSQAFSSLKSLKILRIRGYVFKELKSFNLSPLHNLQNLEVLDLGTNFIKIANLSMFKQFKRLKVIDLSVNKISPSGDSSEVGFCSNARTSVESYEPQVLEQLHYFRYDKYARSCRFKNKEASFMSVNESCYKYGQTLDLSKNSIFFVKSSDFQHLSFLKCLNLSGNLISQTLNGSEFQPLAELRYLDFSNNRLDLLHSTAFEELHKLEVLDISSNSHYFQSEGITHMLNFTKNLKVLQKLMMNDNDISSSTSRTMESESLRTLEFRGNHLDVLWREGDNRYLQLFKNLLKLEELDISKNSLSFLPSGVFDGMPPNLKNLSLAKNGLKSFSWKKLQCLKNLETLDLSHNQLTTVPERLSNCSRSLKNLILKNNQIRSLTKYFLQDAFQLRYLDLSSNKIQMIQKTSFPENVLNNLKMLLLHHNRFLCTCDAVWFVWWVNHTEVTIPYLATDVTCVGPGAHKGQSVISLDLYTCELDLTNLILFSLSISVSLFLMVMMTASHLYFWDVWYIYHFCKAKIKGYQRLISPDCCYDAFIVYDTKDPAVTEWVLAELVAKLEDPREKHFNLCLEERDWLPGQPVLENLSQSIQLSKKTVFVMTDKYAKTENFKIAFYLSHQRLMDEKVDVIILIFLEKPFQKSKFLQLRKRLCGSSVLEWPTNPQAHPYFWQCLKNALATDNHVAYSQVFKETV
# test-details: TLR7 cellular NFκB-luc reporter assay, wild type TLR7
# Format: cell-based
# Design: unit not given here
# conditions-used: lowest effective concentration, wild type TLR7 (compounds 74 onward)
observation-type: TLR 7 wt LEC
In your answer, state the number alone without any accompanying words.

Qu. Requested read-out: TLR 7 wt LEC. Entry: CCCCNc1nc(N)ncc1O[C@@H](C)c1ccccc1
Ans. 8.980

Qu. Now consider CCCCNc1nc(N)ncc1OCCOc1ccnc2ccsc12 and answer again.
Ans. 2.000

Qu. Would you mind doing CCC[C@@H](CCO)Nc1nc(N)ncc1OCCCc1ccccc1 as well?
Ans. 0.683

Qu. CCCCNc1nc(N)ncc1OCCCc1ccc(F)cc1F , same question.
Ans. 2.460

Qu. # repeat for CCCCCNc1nc(N)nc(C)c1OCc1ccccc1
Ans. 15.610

Qu. Would you kindly repeat that for CCCCNc1nc(N)ncc1OCCOc1ccnc2ccccc12 ?
Ans. 2.430

Qu. Try the molecule CCCCNc1nc(N)ncc1OCc1ncccc1OC
Ans. 0.078

Qu. Now consider CCCC(COC)Nc1nc(N)ncc1OC (stereo not shown) and answer again.
Ans. 16.100

Qu. What about this molecule? CCCCNc1nc(N)ncc1OCCOc1cc(OC)cc(OC)c1
Ans. 2.090
